All figures here come from patent US10940139B2.

target: Rho-A (Homo sapiens (Human)); test: Rho inhibition assay (labeled GTP); assay type: binding; settings: read-out: Rho-A % Inh.
Sequence (P61586 whole entry): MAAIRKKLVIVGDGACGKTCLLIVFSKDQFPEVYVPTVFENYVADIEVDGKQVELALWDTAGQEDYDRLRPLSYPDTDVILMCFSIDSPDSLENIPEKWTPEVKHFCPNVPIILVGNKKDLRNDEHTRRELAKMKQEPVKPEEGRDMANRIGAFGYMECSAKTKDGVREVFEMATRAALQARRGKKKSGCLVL
Parameter Measured: inhibition at 20 µM

Completed entries (count: 2):
Compound: CC1CN(c2ccccc2)CCN1C(=O)c1csc2c(O)nc(-c3ccccn3)nc12 (stereo not drawn) [drawing 3650]
inhibition at 20 µM: 76 to 100%
--
Compound: COCCCCN(C)C(=O)c1csc2nc(-c3ccccn3)nc(N3CCOCC3)c12 [drawing 3679]
inhibition at 20 µM: 51 to 75%

Would you kindly look at the next entry?
Form: Entry = Cc1cnc(-c2ccccn2)nc1NC(=O)C(C)c1ccc(C#N)cc1 (stereo not drawn) [drawing 3686] | System = Rho-A (Homo sapiens (Human)) | inhibition at 20 µM = ____
51 to 75%

* * *

biological target: KRas G12D mutant protein (Homo sapiens (Human), UniProt P01116, G12D); assay: Ras GTP binding domain inhibition assay (labeled GTP); details: 20 μM compound; read-out: % Inhibition at 20 μM KRas G12D
Sequence (P01116-2 other isoform, or with tags, fused parts or gaps G12D): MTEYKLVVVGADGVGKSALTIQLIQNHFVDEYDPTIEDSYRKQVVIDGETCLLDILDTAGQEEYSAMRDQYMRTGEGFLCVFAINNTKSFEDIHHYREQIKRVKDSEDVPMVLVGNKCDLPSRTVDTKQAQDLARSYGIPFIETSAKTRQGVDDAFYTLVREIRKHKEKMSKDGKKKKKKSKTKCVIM
Catalogue of inhibition at 20 µM values

The examples below pair each entry with its known result.
Compound: O=C(O)c1cc2nc(-c3ccccn3)nc(O)c2s1 [drawing 2850]
Target Under Test: KRas G12D mutant protein (Homo sapiens (Human), UniProt P01116, G12D)
Measured Value: 51 to 75%

Compound: O=C(CCn1ccnc1)Nc1nc(-c2ccccn2)nc2sccc12 [drawing 2889]
Target Under Test: KRas G12D mutant protein (Homo sapiens (Human), UniProt P01116, G12D)
Measured Value: 76 to 100%

Compound: O=C(c1csc2c(O)nc(-c3ccccn3)nc12)N1CCN(c2ccccc2O)CC1
Target Under Test: KRas G12D mutant protein (Homo sapiens (Human), UniProt P01116, G12D)
Measured Value: 25 to 50%

Compound: Oc1nc(-c2ccccn2)nc2c(-c3ccccc3Cl)csc12 [drawing 2695]
Target Under Test: KRas G12D mutant protein (Homo sapiens (Human), UniProt P01116, G12D)
Measured Value: 25 to 50%

Compound: CC(C)COc1ccc(-c2csc3c(O)nc(-c4ccccn4)nc23)cn1 [drawing 2877]
Target Under Test: KRas G12D mutant protein (Homo sapiens (Human), UniProt P01116, G12D)
Measured Value: 51 to 75%

May I ask what inhibition at 20 µM has been recorded for O=C(c1csc2c(O)nc(-c3ccccn3)nc12)N1CCC(c2ccncc2)C1 (stereo not shown) [drawing 2839] ?
51 to 75%

Another compound: Cc1cnc(-c2ccccn2)nc1NC(=O)Cc1ccc2cnccc2c1 [drawing 2856]
51 to 75%

* * *

target: KRas G12D/Q61H double mutant (Homo sapiens (Human), UniProt P01116, G12D/Q61H); assay: Ras GTP binding domain inhibition assay (labeled GTP); conditions: 20 μM; read-out: KRas G12D Q61H % Inh.
Sequence (P01116-2 other isoform, or with tags, fused parts or gaps G12D/Q61H): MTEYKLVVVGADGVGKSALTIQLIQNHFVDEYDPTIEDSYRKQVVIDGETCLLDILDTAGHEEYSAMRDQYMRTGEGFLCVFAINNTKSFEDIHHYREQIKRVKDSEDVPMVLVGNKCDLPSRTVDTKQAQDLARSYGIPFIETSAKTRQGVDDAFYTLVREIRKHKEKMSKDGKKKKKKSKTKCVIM
Parameter Measured: inhibition at 20 µM

Example entries and their recorded answers appear below.
Molecule: CC(C)C(=O)Nc1nc(CC(=O)Nc2nnc(-c3ccccn3)[nH]2)cs1 [drawing 2541]
Parameter Measured: inhibition at 20 µM
Measured Value: 51 to 75%
//
Molecule: CC(Oc1ccccc1Cl)C(=O)Nc1nnc(-c2ccccn2)[nH]1 (stereo not drawn) [drawing 2467]
Parameter Measured: inhibition at 20 µM
Measured Value: 51 to 75%
//
Molecule: Oc1nc(-c2ccccn2)nc2c1CCCN2 [drawing 2637]
Parameter Measured: inhibition at 20 µM
Measured Value: 25 to 50%
//
Molecule: CS(=O)(=O)N1CCCc2cc(C(=O)Nc3nnc(-c4ccccn4)[nH]3)ccc21 [drawing 2561]
Parameter Measured: inhibition at 20 µM
Measured Value: 76 to 100%
//
Molecule: Cc1c(C(=O)Nc2nnc(-c3ccccn3)[nH]2)oc2c1C(=O)CCC2 [drawing 2477]
Parameter Measured: inhibition at 20 µM
Measured Value: 51 to 75%

Name the reported inhibition at 20 µM value associated with the molecule COC(=O)C(C)CN(Cc1cc(Br)ccc1[N+](=O)[O-])C1CC1 (stereo not drawn) [drawing 2629]
25 to 50%

Now the molecule O=C(Cc1ccc2c(c1)OCCO2)Nc1nnc(-c2ccccn2)[nH]1 [drawing 2551]
51 to 75%

Please do the same for Cc1nc(-c2ccccn2)nc(O)c1CCC(=O)Nc1cc(F)ccc1F [drawing 2596] as well.
51 to 75%

Then what about the molecule O=C(c1ccn(-c2ccccc2)n1)N1CCCc2c(O)nc(-c3ccccn3)nc21 [drawing 2644] ?
76 to 100%

And for O=C(Nc1nc(-c2ccccn2)cs1)C1CC(=O)N(c2ccc3c(c2)OCCO3)C1 (stereo not drawn) [drawing 2575] ?
51 to 75%

What about this molecule? O=C(COc1ccccc1)N1CCCc2c(O)nc(-c3ccccn3)nc21 [drawing 2638]
76 to 100%

Same read-out for Cc1cccc(C)c1OCCOC(=O)c1ccccc1SCCOc1c(C)cccc1C [drawing 2636] ?
51 to 75%
